assay: yeast display, Sf9 membrane polyspecificity reagent, FACS + sequencing; frameworks hold sequencing errors
result type: polyreactivity (PSR sort gate)

The cases that follow already have their polyreactivity (PSR sort gate) on record.
QVQLVESGGGLVQAGGSLRLSCADSGRIITVYDMGWYRQAPGKEREYVAAISDTDSSTYADSVKGRFTISRDNAKNTVYLQMNSLKPEDTAVYYCNAVGDIFGRVSTEYEYWGQGTQVTVSA; low polyreactivity
QVQLVESGGGLVQAGGSLRLSCAASGRIFSWYAMGWYRQAPGKERELVAAISASGSSTYYADSVKGRFTISRDNAKNTVYLQMNSLKPEDTAVYYCNTVSAYYARRSEGYDYWGQGTQVTVSS; high polyreactivity
QVQLVESGGGLVQAGGSLRLSCAASGSIFSGNTMGWYRQAPGKERELVAAISGGGSTNYADSVKGRFTISRDNAKNTVYLQMNSLKPEDTAVYYCAAEPDHVADSHSGYDYWGQGTQVTVSS; low polyreactivity
QVQLVESGGGLVQAGGSLRLSCAASGRTFRVYAMGWYRQAPGKERELVAAISWSDGSTYYADSVKGRFTISRDYAKNTVYLQMNSLKPEDTAVYYCNARVRVPVTLHDYWGQCTQVTVSS; high polyreactivity

Now turn to the next sequence.
Using known records, supply polyreactivity (PSR sort gate) for QVHLVESGGGLFQAGGSLRLSCAASGRTFYYYGMGWYRQAPGKERELVASITNGGNTNYADSVKGRFTISRDNAKNTVYLQMNSLKPEDTAVYYCANDVPYWRPVVRYDYWGQGTQVTVSS
low polyreactivity
